Cited source: paper PMC3269340

# assay.overview: Pharmacokinetics in rats after single iv, po or sc dose (plasma and brain)
# Assay type: in vivo, Sprague-Dawley rats
# condition.summary: male, Sprague-Dawley, rat, plasma, sc, 10 mg/kg, rat plasma, SC 10.0 mg eq./kg; read-out: AUC(0-∞)
parameter: AUC(0-inf) (µM·h)

compound: CC12CC3CC(C)(C1)CC(N)(C3)C2 [memantine]
reported.value: 25.8

* * *

# assay.overview: Pharmacokinetics in rats after single iv, po or sc dose (plasma and brain)
# Assay type: in vivo, Sprague-Dawley rats
# condition.summary: male, Sprague-Dawley, 1 mg/kg; rat plasma, SC 1.0 mg eq./kg; read-out: Observed Tmax
parameter: Tmax (min)

molecule: CC12CC3CC(C)(C1)CC(N)(C3)C2 [memantine]
parameter: Tmax
units.of.measure: min
reported.value: 15
